Molecular target: Dual specificity protein kinase CLK1 (Homo sapiens)
Test: CLK1 binders by thermal stabilization, biophysical, recombinant human kinase, DSF (AID 382)
Conditions: at 10 µM, protein 2 µM, buffer 10 mM HEPES, NaCl 150 mM, with 50 mM Arg/Glu, active compounds read high
The source made the active and inactive calls. The rule behind the calls is not given here.
Listing of entries alongside the reported Tm shift.

Use the examples below as a reference point.
1) CC(C)[C@@H](CO)Nc1ccc2ncc(-c3ccc(C#N)cc3)n2n1; 5.84 Celsius (active)
2) CCN1/C(=C/C(C)=O)Sc2ccc(OC)cc21; 6.91 Celsius (active)
3) CC(=O)c1cccc(-c2cnc3ccc(NCC4CC4)nn23)c1; 5.75 Celsius (active)

Please report the measured Tm shift for CCC(CO)Nc1ccc2ncc(-c3ccc(O)cc3)n2n1 (stereo not given)
7.54 Celsius (active)

Please report the measured Tm shift for Clc1cccc(-c2cnc3ccc(NC4CCOCC4)nn23)c1
6.06 Celsius (active)

---

Target: Dual specificity protein kinase CLK1 (Homo sapiens)
Experiment: CLK1 binders by thermal stabilization, biophysical, recombinant human kinase, DSF (AID 382)
Conditions: at 10 µM, protein 2 µM, buffer 10 mM HEPES, pH 7.5, NaCl 150 mM, with 50 µM L-Arg/L-Glu (1:1), active compounds read high
Active and inactive are the calls of the source. No rule for the calls is given here.
MEASUREMENT TYPE: Tm shift

1. Nc1ccc(-c2cnc3ccc(NC4CCOCC4)nn23)cc1; 4.8 Celsius (active)
2. CC(C)[C@@H](CO)Nc1ccc2ncc(-c3cccc(Cl)c3)n2n1; 3.9 Celsius (active)
3. CC(=O)Nc1cccc(-c2cnc3ccc(N[C@H](CO)C(C)C)nn23)c1; 7.4 Celsius (active)
4. COC(=O)c1ccc(-c2cnc3ccc(NC4CCOCC4)nn23)cc1; 4.3 Celsius (active)
5. CC(C)[C@@H](CO)Nc1ccc2ncc(-c3cccc(C(F)(F)F)c3)n2n1; 5.1 Celsius (active)
6. N#CCCc1ccc2c(c1)-c1[nH]c3ccc(-n4oo4)cc3c1CC(=O)N2; 3.1 Celsius (active)
7. O=C1NC(=O)C(c2cn(CCCn3ccnc3)c3ccccc23)=C1Nc1ccccc1; 5.8 Celsius (active)
8. COc1cncc(-c2cnc3ccc(NC4CCOCC4)nn23)c1; 3.2 Celsius (active)

Please report the measured Tm shift for Nc1ccc(-c2cnn3ccc(Nc4cccc(Cl)c4)nc23)cc1
5.8 Celsius (active)

Please report the measured Tm shift for Oc1cccc(-c2cnc3ccc(NC4CCOCC4)nn23)c1
5.1 Celsius (active)

Please report the measured Tm shift for COc1cccc(-c2cnn3ccc(Nc4cccc(Cl)c4)nc23)c1
6 Celsius (active)

---

Target: Dual specificity protein kinase CLK1 (Homo sapiens)
Assay: CLK1 binders by thermal stabilization, biophysical, recombinant human kinase, DSF (AID 382)
Details: at 10 µM, protein 2 µM, buffer 10 mM HEPES, pH 7.5, NaCl 150 mM, with 50 µM L-Arg/L-Glu (1:1), active compounds read high
Activity calls are given as the source filed them. How the calls were made is not given here.
Listing of entries alongside the reported Tm shift.

1. CC(C)[C@@H](CO)Nc1ccc2ncc(-c3cccc(OC(F)(F)F)c3)n2n1; 4.6 Celsius (active)
2. Cc1cc(Nc2nc(-c3ccccc3)nc3ccccc23)n[nH]1; 5.8 Celsius (active)
3. OCC(O)CCO/N=C1/C(c2c(O)[nH]c3ccccc23)=Nc2ccccc21 (configuration not stated); 7.7 Celsius (active)
4. Nc1cccc(-c2cnn3ccc(Nc4cccc(Cl)c4)nc23)c1; 3.6 Celsius (active)
5. CCN(CC)CCNC(=O)c1c(C)[nH]c(/C=C2\C(=O)Nc3ccc(Cl)cc32)c1C; 6.6 Celsius (active)
6. CCC(CO)Nc1ccc2ncc(-c3ccc(CO)cc3)n2n1 (configuration not stated); 5.3 Celsius (active)

Consider the additional compound presented here.
Please report the measured Tm shift for Oc1cccc(-c2cnc3ccc(NCC4CC4)nn23)c1
3.9 Celsius (active)
